Tapped bulk density listing for selected compounds.
details: undried product, tapped
Answer in g/mL, number only, no unit symbol.

Known results for compounds:
Oc1ccc(O)cc1 [Example 1, hydroquinone] : 0.70
Oc1ccc(O)cc1 [Example 5, hydroquinone] : 0.66
Oc1ccc(O)cc1 [Example 2, hydroquinone] : 0.65
Oc1ccc(O)cc1 [Example 4, hydroquinone] : 0.61

Report Tapped bulk density, nothing else, for this compound: Oc1ccc(O)cc1 [Example 3, hydroquinone]
0.67

###

conditions: undried product, loose
Overview of recorded Loose bulk density for various molecules
Write down the numeric answer in g/mL and omit the unit.

Oc1ccc(O)cc1 [Example 5, hydroquinone] : 0.53
Oc1ccc(O)cc1 [Example 4, hydroquinone] : 0.46
Oc1ccc(O)cc1 [Example 2, hydroquinone] : 0.47
Oc1ccc(O)cc1 [Example 3, hydroquinone] : 0.48

Find the measured Loose bulk density of Oc1ccc(O)cc1 [Example 1, hydroquinone] and report it.
0.52

###

Recorded Dissolution time in acrylic acid at 20° C. (production of a 2.0% by weight solution) for the following compounds
conditions: final concentration 2% by weight
Express it in min; write the number only.

Oc1ccc(O)cc1 [Example 2, hydroquinone] : 30
Oc1ccc(O)cc1 [Example 3, hydroquinone] : 35
Oc1ccc(O)cc1 [hydroquinone powder, hydroquinone] : 20
Oc1ccc(O)cc1 [Example 5, hydroquinone] : 30
Oc1ccc(O)cc1 [Example 1, hydroquinone] : 45

Give the value of Dissolution time in acrylic acid at 20° C. (production of a 2.0% by weight solution) reported for the following: Oc1ccc(O)cc1 [Example 4, hydroquinone]
30

###

conditions: stirred, final concentration 4.8% by weight
assay.endpoint: Dissolution time in water at 20° C. (production of a 4.8% by weight solution) (min)
Entry rule: numbers only, all in min.

Illustrative cases are given below, each with its answer.
Oc1ccc(O)cc1 [Example 4, hydroquinone] : 14
Oc1ccc(O)cc1 [Example 2, hydroquinone] : 15
Oc1ccc(O)cc1 [Example 1, hydroquinone] : 21
Oc1ccc(O)cc1 [Example 3, hydroquinone] : 18
Oc1ccc(O)cc1 [hydroquinone powder, hydroquinone] : 9

Here is the next item to consider.
Consider the compound Oc1ccc(O)cc1 [Example 5, hydroquinone] . State its measured Dissolution time in water at 20° C. (production of a 4.8% by weight solution).
14

This collection of values is drawn from patent US8557380B2.
